- System Under Test: GABAB receptors (R1a and R2) (Mus musculus, UniProt Q80T41+Q9WV18)
- Sequence (Q9WV18 20-960): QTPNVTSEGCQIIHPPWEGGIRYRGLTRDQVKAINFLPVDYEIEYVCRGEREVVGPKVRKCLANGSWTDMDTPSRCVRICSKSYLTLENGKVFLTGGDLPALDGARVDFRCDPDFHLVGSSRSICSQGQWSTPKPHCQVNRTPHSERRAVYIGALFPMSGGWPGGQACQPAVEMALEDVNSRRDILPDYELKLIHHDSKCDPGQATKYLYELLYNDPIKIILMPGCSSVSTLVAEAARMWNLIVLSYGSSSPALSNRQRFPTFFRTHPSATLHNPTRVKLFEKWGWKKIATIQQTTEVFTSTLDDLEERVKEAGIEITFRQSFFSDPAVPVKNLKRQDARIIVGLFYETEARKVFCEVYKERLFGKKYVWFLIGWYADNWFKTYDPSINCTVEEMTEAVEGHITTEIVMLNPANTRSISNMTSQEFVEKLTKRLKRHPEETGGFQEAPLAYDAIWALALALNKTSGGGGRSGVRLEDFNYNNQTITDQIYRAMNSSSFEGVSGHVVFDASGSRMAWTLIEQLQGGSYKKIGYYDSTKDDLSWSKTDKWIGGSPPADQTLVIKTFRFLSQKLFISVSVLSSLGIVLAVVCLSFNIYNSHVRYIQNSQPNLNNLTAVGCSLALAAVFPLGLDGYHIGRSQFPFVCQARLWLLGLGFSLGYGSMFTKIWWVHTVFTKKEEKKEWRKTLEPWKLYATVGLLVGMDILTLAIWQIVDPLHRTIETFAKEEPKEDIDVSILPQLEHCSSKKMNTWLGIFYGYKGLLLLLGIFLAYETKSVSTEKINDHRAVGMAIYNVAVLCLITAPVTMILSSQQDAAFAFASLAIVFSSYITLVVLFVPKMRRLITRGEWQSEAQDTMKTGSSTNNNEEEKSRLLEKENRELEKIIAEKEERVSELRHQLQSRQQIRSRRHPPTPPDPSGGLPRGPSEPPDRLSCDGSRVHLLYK
- Sequence (Q80T41 41-940): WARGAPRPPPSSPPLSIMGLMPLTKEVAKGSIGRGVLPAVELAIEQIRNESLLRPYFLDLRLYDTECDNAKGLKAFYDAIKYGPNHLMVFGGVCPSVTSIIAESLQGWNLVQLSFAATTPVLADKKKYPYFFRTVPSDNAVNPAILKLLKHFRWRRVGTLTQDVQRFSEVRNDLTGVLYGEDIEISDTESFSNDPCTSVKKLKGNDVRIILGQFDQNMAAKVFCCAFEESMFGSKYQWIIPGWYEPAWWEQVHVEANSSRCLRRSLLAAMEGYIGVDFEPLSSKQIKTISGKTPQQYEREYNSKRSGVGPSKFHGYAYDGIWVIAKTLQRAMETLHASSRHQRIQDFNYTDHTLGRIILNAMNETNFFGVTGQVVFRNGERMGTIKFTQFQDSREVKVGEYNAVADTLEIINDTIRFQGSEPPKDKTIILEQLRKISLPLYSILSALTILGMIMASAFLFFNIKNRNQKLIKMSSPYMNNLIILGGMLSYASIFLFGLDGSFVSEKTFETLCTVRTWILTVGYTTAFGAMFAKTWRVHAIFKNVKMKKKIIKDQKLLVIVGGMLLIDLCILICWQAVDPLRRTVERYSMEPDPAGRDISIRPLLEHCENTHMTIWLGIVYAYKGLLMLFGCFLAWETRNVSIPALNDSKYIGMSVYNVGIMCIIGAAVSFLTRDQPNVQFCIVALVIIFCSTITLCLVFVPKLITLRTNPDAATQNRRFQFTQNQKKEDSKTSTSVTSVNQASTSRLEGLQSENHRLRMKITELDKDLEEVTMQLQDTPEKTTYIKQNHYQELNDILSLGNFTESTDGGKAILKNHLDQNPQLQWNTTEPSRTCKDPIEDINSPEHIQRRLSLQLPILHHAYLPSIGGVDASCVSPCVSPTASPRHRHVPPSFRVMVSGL
- Experiment: GABA-activated K+ currents in GIRK cells (HEK cells stably expressing Kir3.1/3.2, transfected with GABAB R1a and R2), whole-cell patch clamp
- Test Context: read-out: IC50 for CGP7930 modulating EC20 GABAB receptor activated currents

Mol Smiles	System Under Test	IC50
CC(C)(CO)Cc1cc(C(C)(C)C)c(O)c(C(C)(C)C)c1	GABAB receptors (R1a and R2) (Mus musculus, UniProt Q80T41+Q9WV18)	10.5 µM

====

- System Under Test: neuronal GABABRs (Rattus norvegicus, UniProt O88871+Q9Z0U4)
- Construct: endogenous in cells
- Sequence (Q9Z0U4 17-960 limits assumed): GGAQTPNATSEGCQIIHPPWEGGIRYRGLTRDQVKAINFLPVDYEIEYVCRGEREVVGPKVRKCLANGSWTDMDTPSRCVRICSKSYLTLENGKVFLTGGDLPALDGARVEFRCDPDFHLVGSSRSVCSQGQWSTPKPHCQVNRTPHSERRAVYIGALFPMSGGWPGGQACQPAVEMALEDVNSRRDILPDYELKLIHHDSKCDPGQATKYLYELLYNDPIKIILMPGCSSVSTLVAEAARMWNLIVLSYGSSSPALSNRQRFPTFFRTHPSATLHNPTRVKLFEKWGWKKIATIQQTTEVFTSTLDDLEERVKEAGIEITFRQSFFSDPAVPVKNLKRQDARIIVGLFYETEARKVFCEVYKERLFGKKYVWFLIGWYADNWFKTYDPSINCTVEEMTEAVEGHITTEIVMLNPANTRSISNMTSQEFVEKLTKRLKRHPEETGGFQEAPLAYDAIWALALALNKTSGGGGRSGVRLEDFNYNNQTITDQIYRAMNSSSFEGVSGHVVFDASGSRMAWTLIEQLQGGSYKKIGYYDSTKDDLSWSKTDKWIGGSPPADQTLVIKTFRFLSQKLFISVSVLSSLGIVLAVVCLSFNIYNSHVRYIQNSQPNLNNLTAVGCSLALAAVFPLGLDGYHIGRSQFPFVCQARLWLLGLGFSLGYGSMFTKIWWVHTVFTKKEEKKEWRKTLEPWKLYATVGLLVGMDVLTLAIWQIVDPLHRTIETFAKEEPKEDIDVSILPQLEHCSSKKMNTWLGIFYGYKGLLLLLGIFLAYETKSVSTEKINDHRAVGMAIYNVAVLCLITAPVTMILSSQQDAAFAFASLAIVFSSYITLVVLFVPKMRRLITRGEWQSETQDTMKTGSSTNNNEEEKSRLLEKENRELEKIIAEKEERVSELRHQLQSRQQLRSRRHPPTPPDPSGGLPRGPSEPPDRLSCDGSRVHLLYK
- Sequence (O88871 41-940): as the sequence (Q80T41 41-940) above, with A2T, Y297F, R356K counted along it
- Experiment: baclofen-activated GIRK currents in hippocampal cultures, high external K+, whole-cell voltage clamp
- Test Context: read-out: EC50 for CGP7930 potentiation of baclofen response
- Method: Briefly, single cells derived from dissected hippocampi were seeded onto glass coverslips coated with poly-D-lysine in a plating medium containing minimum essential media with 5% v/v heat-inactivated FCS, 5% v/v heat-inactivated horse serum, penicillin-G/streptomycin (100 U/100 μg/ml), 2 mM L-glutamine, and 20 mM glucose. […] Spontaneous inhibitory postsynaptic currents (sIPSCs) were recorded from cultured hippocampal neurons at 12–17 days in vitro (DIV). […]

Mol Smiles	EC50 (nM)
CC(C)(CO)Cc1cc(C(C)(C)C)c(O)c(C(C)(C)C)c1	900

====

- System Under Test: α4β3δ GABAAR (Mus musculus, UniProt P22933+P63080+Q9D6F4)
- Construct: expressed in transfected cells; host or cells: HEK-293T
- Sequence (Q9D6F4 36-552): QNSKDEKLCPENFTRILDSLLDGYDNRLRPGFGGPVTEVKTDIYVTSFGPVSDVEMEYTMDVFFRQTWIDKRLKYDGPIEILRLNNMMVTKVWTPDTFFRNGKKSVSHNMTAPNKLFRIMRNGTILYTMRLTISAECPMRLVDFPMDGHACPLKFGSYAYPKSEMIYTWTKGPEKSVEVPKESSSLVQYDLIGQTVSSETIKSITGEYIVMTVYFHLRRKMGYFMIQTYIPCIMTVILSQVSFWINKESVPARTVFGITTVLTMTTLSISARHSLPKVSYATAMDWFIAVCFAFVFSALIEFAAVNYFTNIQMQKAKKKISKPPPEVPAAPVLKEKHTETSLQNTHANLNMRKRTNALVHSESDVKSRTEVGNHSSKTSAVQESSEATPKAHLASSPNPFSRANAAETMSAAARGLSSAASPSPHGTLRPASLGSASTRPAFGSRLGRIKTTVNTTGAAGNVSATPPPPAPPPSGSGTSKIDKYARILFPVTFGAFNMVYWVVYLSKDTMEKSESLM
- Sequence (P63080 26-473): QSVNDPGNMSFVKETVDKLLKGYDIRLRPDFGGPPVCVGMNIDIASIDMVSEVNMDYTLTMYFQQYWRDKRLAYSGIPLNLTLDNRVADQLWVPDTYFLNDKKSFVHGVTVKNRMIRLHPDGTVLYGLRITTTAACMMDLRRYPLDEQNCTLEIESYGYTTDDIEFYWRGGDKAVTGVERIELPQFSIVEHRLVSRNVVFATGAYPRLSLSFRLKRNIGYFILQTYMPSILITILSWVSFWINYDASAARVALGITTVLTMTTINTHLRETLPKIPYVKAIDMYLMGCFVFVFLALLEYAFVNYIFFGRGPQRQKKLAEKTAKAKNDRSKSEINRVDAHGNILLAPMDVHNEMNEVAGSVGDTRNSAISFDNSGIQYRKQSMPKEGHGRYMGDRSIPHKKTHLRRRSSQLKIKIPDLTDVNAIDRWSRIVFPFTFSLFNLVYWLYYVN
- Sequence (P22933 17-449 limits assumed): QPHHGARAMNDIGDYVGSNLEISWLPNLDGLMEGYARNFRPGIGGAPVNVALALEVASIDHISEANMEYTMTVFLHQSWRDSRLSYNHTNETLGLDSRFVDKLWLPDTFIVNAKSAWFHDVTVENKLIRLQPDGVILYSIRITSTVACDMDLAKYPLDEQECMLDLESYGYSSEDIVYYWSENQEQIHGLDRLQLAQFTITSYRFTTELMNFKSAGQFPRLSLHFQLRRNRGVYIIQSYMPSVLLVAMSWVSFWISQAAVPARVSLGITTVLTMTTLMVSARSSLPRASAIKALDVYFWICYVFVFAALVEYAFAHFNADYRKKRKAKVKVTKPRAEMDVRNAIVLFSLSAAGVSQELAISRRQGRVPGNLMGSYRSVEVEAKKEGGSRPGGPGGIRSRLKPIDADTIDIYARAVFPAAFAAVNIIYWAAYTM
- Experiment: whole-cell currents of recombinant GABAA receptors in HEK-293 cells (α4β3δ)
- Type: cell-based, murine
- Test Context: EC50 of GABA EC20 modulation curve, α4β3δ, ∼EC20 GABA, n = 7

Mol Smiles	System Under Test	EC50 [nM]
CC(C)(CO)Cc1cc(C(C)(C)C)c(O)c(C(C)(C)C)c1	α4β3δ GABAAR (Mus musculus, UniProt P22933+P63080+Q9D6F4)	1000

====

- System Under Test: GABAB receptors (R1a and R2) (Mus musculus, UniProt Q80T41+Q9WV18)
- Experiment: GABA-activated K+ currents in GIRK cells (HEK cells stably expressing Kir3.1/3.2, transfected with GABAB R1a and R2), whole-cell patch clamp
- Test Context: read-out: EC50 for CGP7930 modulating EC20 GABAB receptor activated currents
Measurement Label: EC50 (µM)

Mol Smiles	System Under Test	Measurement Label	Value Units	Measured
CC(C)(CO)Cc1cc(C(C)(C)C)c(O)c(C(C)(C)C)c1	GABAB receptors (R1a and R2) (Mus musculus, UniProt Q80T41+Q9WV18)	EC50	µM	11.1

====

- System: native GABAARs in hippocampal neurons
- Experiment: muscimol-activated and CGP7930-activated GABAAR currents in hippocampal neurons, Cs+-based internal solution
- Format: cell-based, rat
- Test Context: ∼EC10-15 muscimol (0.5 μM), direct effect subtracted, n = 10; read-out: IC50 of bell-shaped muscimol potentiation curve
pIC50: −log10 of the molar value.

Compound	pIC50
CC(C)(CO)Cc1cc(C(C)(C)C)c(O)c(C(C)(C)C)c1 [CGP7930]	5.10

====

- System Under Test: α4β3δ GABAAR (Mus musculus, UniProt P22933+P63080+Q9D6F4)
- Construct: expressed in transfected cells; host or cells: HEK-293T
- Experiment: whole-cell currents of recombinant GABAA receptors in HEK-293 cells (α4β3δ)
- Type: cell-based, murine
- Test Context: α4β3δ (αβδ); read-out: EC50 for direct activation by CGP7930 alone

Compound	EC50 (µM)
CC(C)(CO)Cc1cc(C(C)(C)C)c(O)c(C(C)(C)C)c1 [CGP7930]	13.1
